Tested on: Leishmania donovani axenic amastigote parasites
experimental.details: Leishmania donovani axenic amastigote proliferation assay
Type: cell-based
condition.set: axenic amastigotes in vitro, read-out: L. donovani amastigotes EC50
pEC50: −log10 of the molar value.
measured.metric: pEC50

| molecule | target.desc | relation.symbol | assay.value |
| --- | --- | --- | --- |
| Cc1cnc2nc(-c3cc(NC(=O)Cc4ccc(F)cc4F)ccc3Cl)[nH]c2c1 | Leishmania donovani axenic amastigote parasites | < | 4.60 |
| O=C(Nc1ccc(Cl)c(-c2nc3ncc(-c4c[nH]cn4)cc3[nH]2)c1)N1CCCC1 | Leishmania donovani axenic amastigote parasites | < | 4.60 |
| Cc1cnc2nc(-c3cc(NC(=O)C4CCC4)ccc3Cl)[nH]c2c1 | Leishmania donovani axenic amastigote parasites | = | 4.95 |
| O=C(Nc1ccc(Cl)c(-c2nc3ncc(-c4ccc(CCN5CCOCC5)cc4)cc3[nH]2)c1)c1ccco1 | Leishmania donovani axenic amastigote parasites | = | 5.71 |
| O=C(Nc1ccc(C(F)(F)F)cc1)Nc1ccc(F)c(-c2nc3ncc(Cl)cc3[nH]2)c1 | Leishmania donovani axenic amastigote parasites | < | 4.60 |
| CC(C)c1nnc(C(=O)Nc2ccc(F)c(-c3nc4ncc(Br)cc4o3)c2)o1 | Leishmania donovani axenic amastigote parasites | < | 4.60 |
| C[C@@H](CO)NCc1cnc2nc(-c3cc(NC(=O)c4ccco4)ccc3Cl)[nH]c2c1 | Leishmania donovani axenic amastigote parasites | < | 4.60 |
| O=C(Nc1ccc(Cl)c(-c2nc3ncc(C(F)(F)F)cc3[nH]2)c1)c1cncc(F)c1 | Leishmania donovani axenic amastigote parasites | = | 5.40 |
| Cc1cnc2nc(-c3cc(NC(=O)c4nc(C)oc4C(F)(F)F)ccc3Cl)[nH]c2c1 | Leishmania donovani axenic amastigote parasites | < | 4.60 |
| Cc1cnc2nc(-c3cc(NC(=O)N4CC[C@H](F)C4)ccc3Cl)[nH]c2c1 | Leishmania donovani axenic amastigote parasites | = | 5.46 |
| CN(C)c1ccc(-c2cnc3nc(-c4cc(NC(=O)Nc5ccc(C(F)(F)F)cc5)ccc4F)oc3c2)cc1 | Leishmania donovani axenic amastigote parasites | = | 4.90 |
| Cc1cnc2nc(-c3cc(NC(=O)C4CCCO4)ccc3Cl)[nH]c2c1 (stereo not shown) | Leishmania donovani axenic amastigote parasites | < | 4.60 |
| CN(C(=O)OC(C)(C)C)c1ccc(-c2cnc3nc(-c4cc(NC(=O)N5CCCC5)ccc4Cl)[nH]c3c2)cc1 | Leishmania donovani axenic amastigote parasites | = | 6.94 |
| Cc1cnc2nc(-c3cc(NC(=O)C(C)c4ccc(F)cc4)ccc3Cl)[nH]c2c1 (stereo not shown) | Leishmania donovani axenic amastigote parasites | < | 4.60 |
| Cc1csc(C(=O)Nc2ccc(Cl)c(-c3nc4ncc(C)cc4[nH]3)c2)c1 | Leishmania donovani axenic amastigote parasites | = | 5.10 |
| Cc1cnc2nc(-c3cc(NC(=O)Cc4ccc(OC(F)(F)F)cc4)ccc3Cl)[nH]c2c1 | Leishmania donovani axenic amastigote parasites | < | 4.60 |

###

Tested on: L. donovani HU3 strain in mouse peritoneal macrophages
experimental.details: Assay for proliferation of Leishmania parasites in mouse peritoneal macrophages
Format: cell-based, Leishmania donovani
condition.set: Leishmania donovani, Peritoneal macrophage, read-out: L. donavani Macrophage EC50
pEC50: −log10 of the molar value.

| molecule | relation.symbol | pEC50 |
| --- | --- | --- |
| COC(=O)Nc1ccc(Cl)c(-c2nc3ncc(C)cc3[nH]2)c1 [Compound 224] | = | 4.95 |
| Cc1cnc2nc(-c3cc(NC(=O)c4occc4C)ccc3Cl)[nH]c2c1 [Compound 130] | = | 4.80 |
| Cc1cnc2nc(-c3cc(NC(=O)c4cccnn4)ccc3Cl)[nH]c2c1 [Compound 186] | < | 4.46 |
| Cc1cnc2nc(-c3cc(NC(=O)c4cccc(N(C)C)c4)ccc3Cl)[nH]c2c1 [Compound 184] | < | 4.30 |
| CC(C)(C)C(=O)Nc1ccc(F)c(-c2nc3ncc(Cl)cc3[nH]2)c1 [Compound 358] | < | 4.30 |
| CC(C)OC(=O)Nc1ccc(Cl)c(-c2nc3ncc(C#N)cc3n2C(=O)OC(C)C)c1 [Compound 288] | = | 6.89 |

###

Test system: Leishmania donovani axenic amastigote parasites
experimental.details: Leishmania donovani axenic amastigote proliferation assay
Type: cell-based
condition.set: axenic amastigotes in vitro, read-out: L. donovani amastigotes EC50
Description: Leishmania Donovani Axenic Amastigote Proliferation Assay Leishmania donovani axenic amastigote parasites are grown at 37° C., 5% CO2 in media made of RPMI 1640, 4 mM L-glutamine, 20% heat inactivated FBS, 100 units/ml of penicillin and 100 μg/ml of streptomycin, 23 μM Folic Acid, 100 μM Adenosine, 22 mM D-glucose, 25 mM MES. The pH of media is adjusted to 5.5 at 37° C. using HCl. […] The luminescence signal of each well is measured using the Envision reader (Perkin Elmer). […]
pEC50: −log10 of the molar value.

| smiles.text | pEC50 |
| --- | --- |
| Cc1cnc2nc(-c3cc(NC(=O)c4ccc(C)[nH]4)ccc3Cl)[nH]c2c1 | < 4.60 |
| Cc1cnc2nc(-c3cc(NC(=O)NCCN(C(C)C)C(C)C)ccc3Cl)[nH]c2c1 | < 4.60 |
| Cc1cnc2nc(-c3cc(NC(=O)NC4CCC4)ccc3Cl)[nH]c2c1 | < 4.60 |
| Cc1cnc2nc(-c3cc(NC(=O)c4ncc[nH]4)ccc3Cl)[nH]c2c1 | < 4.60 |

###

System: L. donovani HU3 strain in mouse peritoneal macrophages
experimental.details: Assay for proliferation of Leishmania parasites in mouse peritoneal macrophages
Format: cell-based, Leishmania donovani
condition.set: Leishmania donovani, Peritoneal macrophage, read-out: L. donavani Macrophage EC50
pEC50: −log10 of the molar value.

| compound | relation.symbol | pEC50 |
| --- | --- | --- |
| Cc1cnc2nc(-c3cc(NC(=O)Cc4ccc(F)c(F)c4)ccc3Cl)[nH]c2c1 [Compound 142] | = | 4.68 |
| Cc1cnc2nc(-c3cc(NC(=O)c4cc[nH]n4)ccc3Cl)[nH]c2c1 [Compound 157] | < | 4.46 |
| COCn1c(-c2cc(NC(=O)N3CCCC3)ccc2Cl)nc2ncc(Br)cc21 [Example 386] | = | 5.37 |
| COc1ncc(-c2cnc3nc(-c4cc(NC(=O)c5ccco5)ccc4Cl)[nH]c3c2)cn1 [Compound 9] | = | 5.92 |
| COC(=O)Nc1ccc(Cl)c(-c2nc3ncc(C#N)cc3[nH]2)c1 [Compound 290] | = | 4.76 |
| O=C(Nc1ccc(Cl)c(-c2nc3ncc(-c4c[nH]cn4)cc3[nH]2)c1)N1CCCC1 [Compound 307] | < | 4.30 |
| Cc1cnc2nc(-c3cc(NC(=O)CNC(=O)OC(C)(C)C)ccc3Cl)[nH]c2c1 [Compound 112] | < | 4.30 |
| O=C(Nc1ccc(Cl)c(-c2nc3ncc(-c4ccc(OCCN5CCCC5)cc4)cc3[nH]2)c1)c1ccco1 [Compound 55] | = | 5.17 |
| CN(C)Cc1ccc(C(=O)Nc2ccc(Cl)c(-c3nc4ncc(Br)cc4[nH]3)c2)o1 [Example 372] | = | 5.60 |
| O=C(Nc1ccc(Cl)c(-c2nc3ncc(-c4ccc(OCCn5ccnc5)cc4)cc3[nH]2)c1)c1ccco1 [Compound 71] | = | 5.73 |
| CC(C)N1CCN(c2ccc(-c3cnc4nc(-c5cc(NC(=O)c6ccco6)ccc5Cl)[nH]c4c3)cc2)CC1 [Compound 62] | = | 5.03 |
| Cc1cnc2nc(-c3cc(NC(=O)CCN)ccc3F)[nH]c2c1 [Compound 268] | < | 4.30 |
| Cc1cnc2nc(-c3cc(NC(=O)c4nc(C)oc4C(F)(F)F)ccc3Cl)[nH]c2c1 [Compound 176] | < | 4.30 |
| CC(C)OC(=O)Nc1ccc(Cl)c(-c2nc3ncc(-c4ccc(NC(=O)CCN)cc4)cc3[nH]2)c1 [Compound 339] | = | 5.74 |
| CN1CCN(CCOc2ccc(-c3cnc4nc(-c5cc(NC(=O)N6CCCC6)ccc5F)[nH]c4c3)cc2)CC1 [Compound 311] | < | 5.16 |
| O=C(Nc1ccc(Cl)c(-c2nc3ncc(-c4ccc(OCCN5CCOCC5)nc4)cc3[nH]2)c1)c1ccco1 [Compound 11] | = | 6.34 |
| CCN(CC)CCCCCCNC(=O)Nc1ccc(Cl)c(-c2nc3ncc(C)cc3[nH]2)c1 [Compound 227] | < | 4.30 |
| Cc1cnc2nc(-c3cc(NC(=O)c4cncn4C)ccc3Cl)[nH]c2c1 [Compound 207] | < | 4.30 |
| Cc1cnc2nc(-c3cc(NC(=O)c4ccno4)ccc3F)[nH]c2c1 [Compound 270] | < | 4.30 |
| O=C(Nc1ccc(F)c(-c2nc3ncc(-c4ccccc4)cc3[nH]2)c1)N1CCCC1 [Example 309] | = | 5.35 |
| Cc1cnc2nc(-c3cc(NC(=O)c4nccnc4O)ccc3Cl)[nH]c2c1 [Compound 174] | < | 4.30 |
| CN(C)c1ccc(-c2cnc3nc(-c4cc(NC(=O)Nc5ccc(C(F)(F)F)cc5)ccc4F)oc3c2)cc1 [Compound 390] | = | 4.74 |
| CC(C)OC(=O)Nc1ccc(Cl)c(-c2nc3ncc(C#N)cc3[nH]2)c1 [Example 287] | = | 7.11 |

Reference source for all entries: patent US9233961B2
